Origin of values: PubChem BioAssay AID1259407

- System: CCRIS mutagenicity, Ames/micronucleus/aberration tests
- testSummary: CCRIS mutagenicity studies
- assaySetup: Test System: AMES SALMONELLA TYPHIMURIUM; Strain/Indicator: TA98; Metabolic Activation: RAT, LIVER, S-9; Method: STANDARD PLATE
Calls of active or inactive are those of the source. The rule behind the calls is not given here.

[
  {
    "compound": "CC(C)COS(=O)(=O)c1ccccc1",
    "mutagenic call": "active; positive"
  },
  {
    "compound": "Clc1ccc(C(c2ccccc2Cl)C(Cl)Cl)cc1 (centres undefined)",
    "mutagenic call": "inactive; negative"
  },
  {
    "compound": "Cc1cccc(C)c1N=Nc1c(O)ccc2ccccc12",
    "mutagenic call": "inactive; negative"
  },
  {
    "compound": "CC(=O)Nc1ccc2c(c1)Cc1ccccc1-2",
    "mutagenic call": "active; positive"
  }
]

* * *

- Tested on: CCRIS mutagenicity, Ames/micronucleus/aberration tests
- testSummary: CCRIS mutagenicity studies
- assaySetup: Test System: AMES SALMONELLA TYPHIMURIUM; Strain/Indicator: TA100; Metabolic Activation: NONE; Method: STANDARD PLATE
Active and inactive are the calls of the source. How the calls were made is not given here.
Respond only with the outcome that fits, drawn from active, inactive

[
  {
    "molecule": "O=[N+]([O-])c1ccc(-c2nc3n(c2[N+](=O)[O-])CCS3)cc1",
    "qualitativeLabel": "active"
  },
  {
    "molecule": "O=C(/C=C/c1ccccc1)c1ccc(F)cc1",
    "qualitativeLabel": "inactive"
  },
  {
    "molecule": "CCOP(=S)(OCC)SCn1c(=O)oc2cc(Cl)ccc21",
    "qualitativeLabel": "inactive"
  },
  {
    "molecule": "Nc1ccc2c(c1)oc1ccccc12",
    "qualitativeLabel": "inactive"
  },
  {
    "molecule": "CC(=O)N[C@@H](C(=O)N(CC(=O)O)N=O)C(C)C",
    "qualitativeLabel": "active"
  },
  {
    "molecule": "O=C(CO)N(O)c1ccc(Cl)cc1",
    "qualitativeLabel": "inactive"
  }
]

Consider the record given below.
## Task Could you kindly confirm the outcome this assay logged for `CCCNc1snc2ccccc12` ?
## Result inactive

* * *

- System: CCRIS mutagenicity, Ames/micronucleus/aberration tests
- testSummary: CCRIS mutagenicity studies
- assaySetup: Test System: AMES SALMONELLA TYPHIMURIUM; Strain/Indicator: TA100; Metabolic Activation: NONE; Method: STANDARD PLATE
The source made the active and inactive calls. No rule for the calls is given here.
Respond only with the outcome that fits, drawn from active, inactive

As a guide, the following entries are already answered.
[
  {
    "mol": "C=C(Cl)CSC(=S)N(CC)CC",
    "qualitativeLabel": "inactive"
  },
  {
    "mol": "C[C@H]1CC[C@@H]2[C@@H](C)[C@H]3[C@H](C[C@H]4[C@@H]5CC=C6C[C@@H](O[C@@H]7O[C@H](CO)[C@@H](O[C@@H]8O[C@@H](C)[C@H](O)[C@@H](O)[C@H]8O)[C@H](O)[C@H]7O[C@@H]7O[C@@H](C)[C@H](O)[C@@H](O)[C@H]7O)CC[C@]6(C)[C@H]5CC[C@]34C)N2C1",
    "qualitativeLabel": "inactive"
  },
  {
    "mol": "CN(N=O)C(=O)N[C@@H](C=O)[C@@H](O)[C@H](O)[C@H](O)CO",
    "qualitativeLabel": "active"
  }
]

## Task Could you kindly confirm the outcome this assay logged for `Cc1ccc(NC(=O)CBr)cc1` ?
## Result inactive

* * *

- Tested on: CCRIS mutagenicity, Ames/micronucleus/aberration tests
- testSummary: CCRIS mutagenicity studies
- assaySetup: Test System: AMES SALMONELLA TYPHIMURIUM; Strain/Indicator: TA1535; Metabolic Activation: NONE; Method: STANDARD PLATE
Active and inactive are the calls of the source. The rule behind the calls is not given here.
Respond only with the outcome that fits, drawn from active, inactive

As a guide, the following entries are already answered.
[
  {
    "mol": "C[Si](Cl)(Cl)Cl",
    "systemTested": "CCRIS mutagenicity, Ames/micronucleus/aberration tests",
    "qualitativeLabel": "inactive"
  },
  {
    "mol": "ClC(Cl)(Cl)Cl",
    "systemTested": "CCRIS mutagenicity, Ames/micronucleus/aberration tests",
    "qualitativeLabel": "inactive"
  },
  {
    "mol": "CCCCC/C=C/C=C/C=O",
    "systemTested": "CCRIS mutagenicity, Ames/micronucleus/aberration tests",
    "qualitativeLabel": "inactive"
  },
  {
    "mol": "O=C(CCl)CCl",
    "systemTested": "CCRIS mutagenicity, Ames/micronucleus/aberration tests",
    "qualitativeLabel": "active"
  }
]

## Task Could you kindly confirm the outcome this assay logged for `CSc1ccc(Cl)cc1` ?
## Result inactive

## Task Could you kindly confirm the outcome this assay logged for `CCCCOCCOCCO` ?
## Result inactive

* * *

- Tested on: CCRIS mutagenicity, Ames/micronucleus/aberration tests
- testSummary: CCRIS mutagenicity studies
- assaySetup: Test System: AMES SALMONELLA TYPHIMURIUM; Strain/Indicator: TA1537; Metabolic Activation: NONE; Method: PREINCUBATION
Calls of active or inactive are those of the source. The rule behind the calls is not given here.
Respond only with the outcome that fits, drawn from Y = active, N = inactive

As a guide, the following entries are already answered.
[
  {
    "molecule": "c1cc2c3c(cccc3c1)CC2",
    "qualitativeLabel": "N"
  },
  {
    "molecule": "CCC(=O)O",
    "qualitativeLabel": "N"
  },
  {
    "molecule": "CCCCOC(=O)c1ccccc1C(=O)OC1CCCCC1",
    "qualitativeLabel": "N"
  },
  {
    "molecule": "CO",
    "qualitativeLabel": "N"
  },
  {
    "molecule": "O=c1n(CC2CO2)c(=O)n(CC2CO2)c(=O)n1CC1CO1 (stereo not drawn)",
    "qualitativeLabel": "N"
  },
  {
    "molecule": "Nc1ccc2c(c1)C(=O)/C(=N/Nc1ccc(-c3ccc(N/N=C4/C(=O)c5c(N)cc(S(=O)(=O)O)cc5C=C4S(=O)(=O)O)cc3)cc1)C(S(=O)(=O)O)=C2",
    "qualitativeLabel": "Y"
  },
  {
    "molecule": "O=C(Cl)c1ccccc1F",
    "qualitativeLabel": "N"
  },
  {
    "molecule": "CC1CNCC(C)O1 (stereo not drawn)",
    "qualitativeLabel": "N"
  }
]

## Task Could you kindly confirm the outcome this assay logged for `Cc1cnc[nH]1` ?
## Result N

## Task Could you kindly confirm the outcome this assay logged for `O=P(O)(O)OP(=O)(O)OP(=O)(O)O` ?
## Result N

## Task Could you kindly confirm the outcome this assay logged for `OB(O)O` ?
## Result N

## Task Could you kindly confirm the outcome this assay logged for `Nc1ccc2nc3ccccc3cc2c1` ?
## Result Y

## Task Could you kindly confirm the outcome this assay logged for `C=CC(=O)O` ?
## Result N

* * *

- Test system: CCRIS mutagenicity, Ames/micronucleus/aberration tests
- testSummary: CCRIS mutagenicity studies
- assaySetup: Test System: MOUSE LYMPHOMA; Strain/Indicator: L5178Y (TK+/TK-); Metabolic Activation: NONE; Method: SUSPENSION/PLATE
Active and inactive are the calls of the source. How the calls were made is not given here.
Respond only with the outcome that fits, drawn from TRUE (active), FALSE (inactive)

[
  {
    "compound": "c1cnccn1",
    "qualitativeLabel": "FALSE"
  },
  {
    "compound": "O=C1Nc2ccc([N+](=O)[O-])cc2C1=O",
    "qualitativeLabel": "TRUE"
  },
  {
    "compound": "O=C(O)CC[N+](=O)[O-]",
    "qualitativeLabel": "TRUE"
  },
  {
    "compound": "OB(O)O",
    "qualitativeLabel": "FALSE"
  },
  {
    "compound": "COc1c(Cl)c(Cl)c(Cl)c(Cl)c1Cl",
    "qualitativeLabel": "FALSE"
  },
  {
    "compound": "COc1ccc(-c2coc3cc(O)cc(O)c3c2=O)cc1",
    "qualitativeLabel": "TRUE"
  },
  {
    "compound": "BrC(Br)Br",
    "qualitativeLabel": "TRUE"
  },
  {
    "compound": "OC/C=C/c1ccccc1",
    "qualitativeLabel": "TRUE"
  }
]

## Task Could you kindly confirm the outcome this assay logged for `OO` ?
## Result TRUE

## Task Could you kindly confirm the outcome this assay logged for `Nc1ccc([N+](=O)[O-])cc1O` ?
## Result TRUE

## Task Could you kindly confirm the outcome this assay logged for `CCCCOC(=O)c1ccccc1C(=O)OCCCC` ?
## Result FALSE

## Task Could you kindly confirm the outcome this assay logged for `Oc1cccc(O)c1` ?
## Result TRUE

* * *

- Tested on: CCRIS mutagenicity, Ames/micronucleus/aberration tests
- testSummary: CCRIS mutagenicity studies
- assaySetup: Test System: AMES SALMONELLA TYPHIMURIUM; Strain/Indicator: TA98; Metabolic Activation: RAT, LIVER, S-9; Method: STANDARD PLATE
Activity calls are given as the source filed them. How the calls were made is not given here.
Respond only with the outcome that fits, drawn from true (1) (active), false (0) (inactive)

[
  {
    "mol": "CCOC(=O)[C@H]1O[C@@H]1C(=O)N[C@@H](CC(C)C)C(=O)NCCC(C)C",
    "qualitativeLabel": "false (0)"
  }
]

## Task Could you kindly confirm the outcome this assay logged for `Nc1ccc2cc3ccc(N)cc3nc2c1` ?
## Result true (1)

## Task Could you kindly confirm the outcome this assay logged for `CN(C)CCN(Cc1cccs1)c1ccccn1` ?
## Result false (0)

## Task Could you kindly confirm the outcome this assay logged for `CNC(=O)ONC(C)=O` ?
## Result true (1)

## Task Could you kindly confirm the outcome this assay logged for `CCSCCSP(=O)(OC)OC` ?
## Result false (0)

## Task Could you kindly confirm the outcome this assay logged for `C[C@H]1CCCC(=O)CCCCCc2cc(O)cc(O)c2C(=O)O1` ?
## Result false (0)

## Task Could you kindly confirm the outcome this assay logged for `CC1=C[C@H](O)[C@H]2C[C@@H]1C2(C)C` ?
## Result false (0)

## Task Could you kindly confirm the outcome this assay logged for `CC(=O)c1ccc(S(=O)(=O)NC(=O)NC2CCCCC2)cc1` ?
## Result false (0)

## Task Could you kindly confirm the outcome this assay logged for `CCOc1ccc(NC(C)=O)cc1N` ?
## Result true (1)

## Task Could you kindly confirm the outcome this assay logged for `CCCCCCCOP(=S)([S-])OCCCCCCC.CCCCCCCOP(=S)([S-])OCCCCCCC.[Zn+2]` ?
## Result false (0)
